# TEST TARGET: recombinant human ULK1 protein (1-649) (Homo sapiens)
# Construct: recombinant human ULK1 protein (1-649, SignalChem #U01-11G); purchased SignalChem U01-11G
# Sequence (O75385 1-649): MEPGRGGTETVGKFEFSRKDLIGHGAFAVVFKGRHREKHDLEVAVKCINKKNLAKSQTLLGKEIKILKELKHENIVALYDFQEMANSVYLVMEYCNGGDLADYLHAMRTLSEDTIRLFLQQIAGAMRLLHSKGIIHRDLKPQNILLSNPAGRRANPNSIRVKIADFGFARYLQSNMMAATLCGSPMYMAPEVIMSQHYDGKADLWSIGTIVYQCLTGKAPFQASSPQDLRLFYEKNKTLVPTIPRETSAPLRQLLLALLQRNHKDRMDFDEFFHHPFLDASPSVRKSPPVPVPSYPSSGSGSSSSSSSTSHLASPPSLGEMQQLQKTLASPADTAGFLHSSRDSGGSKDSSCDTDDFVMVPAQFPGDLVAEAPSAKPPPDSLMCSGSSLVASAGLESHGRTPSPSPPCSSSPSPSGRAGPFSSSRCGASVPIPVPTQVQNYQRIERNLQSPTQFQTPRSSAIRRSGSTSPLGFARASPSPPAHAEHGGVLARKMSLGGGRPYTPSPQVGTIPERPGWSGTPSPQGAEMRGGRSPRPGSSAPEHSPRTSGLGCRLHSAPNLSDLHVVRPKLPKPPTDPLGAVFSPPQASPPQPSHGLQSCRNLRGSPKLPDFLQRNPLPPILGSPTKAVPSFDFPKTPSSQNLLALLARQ
# EXPERIMENT NOTES: ULK1 inhibition assay (ADP Glo)
# Type: biochemical
# COND: Table 1; 25 uM ATP, MBP substrate, one hour
pIC50: −log10 of the molar value.
RECORDED ENDPOINT: pIC50

Supply pIC50 value. Item: Nc1ccc(CN2CCc3cc(Nc4ncc(C(F)(F)F)c(NC5CC5)n4)ccc3C2)cc1 [Compound A112]
< 8.00

Consider the compound CNC(=O)c1ccccc1Nc1nc(Nc2ccc3c(c2)C[N+](C)(C)CC3)ncc1Br [Compound A168] . State its measured pIC50.
< 8.00

Write down pIC50 measured for item FC(F)(F)c1cnc(Nc2ccc3c(c2)CN(Cc2cc[nH]c2)CC3)nc1NC1CC1 [Compound A94]
8.00 to 9.00

Please supply the value of reported pIC50 for the item CNC(=O)c1ccccc1Nc1nc(Nc2ccc3c(c2)CN(Cc2ccncn2)CC3)ncc1Br [Compound A160]
< 8.00

Please list pIC50 recorded for the compound NOCC(=O)N1CCc2cc(Nc3ncc(C(F)(F)F)c(NC4CC4)n3)ccc2C1 [Compound A80]
8.00 to 9.00

Report pIC50 for CNC(=O)c1ccccc1Nc1nc(Nc2ccc3c(c2)CN(C(=O)CCC(=O)O)CC3)ncc1Br [Compound A156]
< 8.00

Return value of pIC50 for input FC(F)(F)c1cnc(Nc2ccc3c(c2)CN(Cc2ccncc2)CC3)nc1NC1CC1 [Compound A82] , no commentary.
> 9.00
